Record form. Attribute: growth. Fill in for each entry.
test system: SNB-19 CNS; assay: NCI-60 one-dose screen, 48 h (100 = growth as untreated, 0 = no growth, -100 = all killed); settings: 10 µM unless noted
Compounds without any hit were thinned out: in the full panel of roughly 83,000, 20% have a hit. Activity calls are given as the source filed them. How the source made its calls: active means growth percent below 10; inactive means the rest.

// worked examples, growth included
CN(CCc1ccccc1)C(=S)N(C(=O)c1ccc([N+](=O)[O-])cc1)c1ccc(Cl)cc1; 101% (inactive)
CCOC(=O)c1cnc2ccc(Cl)cc2c1NCCCN(C)C; 24.5% (inactive)

For every record below, what is its growth?
1. c1ccc(CNc2nc(Nc3ccccc3)nc3ccccc23)cc1
2. COc1cc(C2C(C#N)=C(N)OC3=C2C(=O)c2ccccc2C3=O)cc(OC)c1O (centres undefined)
3. CCCN1CCN(c2ccc3nc(-c4ccc5nc(-c6cc(OC)ccc6OC)[nH]c5c4)[nH]c3c2)CC1
4. COc1ccc(OC)c(N(CCN2C(=O)c3ccccc3C2=O)C(=O)CCl)c1
5. CC(=O)c1ccc(Cc2ccc(C(C)=O)s2)s1
6. O=C(c1ccccc1)N(C(=S)NCCc1ccc(Cl)cc1)c1ccc(Cl)cc1
7. COc1ccc(Cn2c(Br)c3c(c2-c2cc(OC)c(OC)c(OC)c2)CCc2sc(NC(=O)c4ccc(OC)cc4)nc2-3)cc1
8. O=C(CN1C(=O)/C(=C\c2ccc(Cl)cc2)SC1=S)Nc1ncc(Cc2ccc(Cl)cc2)s1

(A)
1: 47.3% (inactive); 2: 37.3% (inactive); 3: 115% (inactive); 4: 114% (inactive); 5: 98.8% (inactive); 6: 59.3% (inactive); 7: 98.5% (inactive); 8: 102% (inactive)

Each molecule below has a reported value. Please supply its growth.
1. C[n+]1c2ccccc2nc2ccc(NCCO)cc21
2. Oc1[nH]c2ccccc2c1N=Nc1nnc2n1N=C(c1ccccc1)CS2
3. O=C(c1nc2ccccc2[nH]1)C1C(c2ccc(F)cc2)C2CC3CCCCC3N2[C@@]12C(=O)Nc1ccc(Cl)cc12 (some centres undefined)
4. Cc1ccc2c(n1)C(=O)C(Oc1ccc(Br)cc1)=CC2=O
5. COc1cccc2c(=O)c3c(sc12)c(NCCCNCCO)nc1ccccc13
6. COc1cc(/C(C#N)=C/c2nc3c(N4CCOCC4)nc(Cl)nc3n2C)cc(OC)c1OC

(A)
1: 78.3% (inactive); 2: 83.6% (inactive); 3: 54.1% (inactive); 4: 96.6% (inactive); 5: 63.6% (inactive); 6: 17.7% (inactive)

Could I get growth for every one of these entries?
1. C1=CC2(C=C1)OC21CCC2(C=CC3(C2)OC3C2CCCCC2)CC1 (centres undefined)
2. CCOC(=O)c1c2c(n3cccc(Cl)c13)C(=O)c1ncccc1C2=O
3. COC(=O)/C(CCC=C(C)C)=C1\[C@@H](OC(C)=O)C[C@@]2(C)[C@H]1C[C@@H](O)[C@H]1[C@@]3(C)CC[C@H](NCCCNCCCCNCCCN)[C@@H](C)[C@@H]3CC[C@@]12C

(A)
1. 104% (inactive)
2. 45.9% (inactive)
3. 61.8% (inactive)

====

system: CAKI-1 renal; test: NCI-60 one-dose screen, 48 h (100 = growth as untreated, 0 = no growth, -100 = all killed); details: 10 µM unless noted
About 83,000 compounds went through this panel and 20% of them were active in at least one assay; those are over-represented in the sample as a whole.
PROPERTY: growth (%)
Answers are plain numbers, in %.

Worked set:
CCOC(=O)c1c(C=O)nc2ccccc2c1/C=C/c1ccc(Cl)cc1; 89.6
Cc1ccc2sc3c(NCCCNCCO)nc4ccccc4c3c(=O)c2c1; 56.7
O=c1nc2sc3nc4ccccc4cc3cc-2s1; 137
O=c1[nH]nnc2c1ncn2C1OC(CO)C(O)C1O (stereo unspecified); 25.2
O=C(NCCCN1CCC(N2CCCCC2)CC1)C1=Cc2cc(Br)ccc2OC1; 54.5

The record that follows has no growth shown yet.
(Q) Write down the reported growth (system: CAKI-1 renal) of `CCOC(=O)c1sc(-c2ccc(OS(=O)(=O)c3cccs3)c(C=O)c2)nc1C`
(A) 2.41

====

Tested on: NCI-H322M lung
Assay: NCI-60 one-dose screen, 48 h (100 = growth as untreated, 0 = no growth, -100 = all killed)
Conditions: 10 µM unless noted
Protocol: Growth inhibition of the NCI-H322M human Non-Small Cell Lung tumor cell line is measured as a screen for anti-cancer activity. Cells are grown in 96 well plates and exposed to the test compound for 48 hours. Compounds are tested at a single concentration, which is 10^-5 M for most compounds. The reported endpoint is percent growth (GI% or GIPRCNT), where numbers from 0 - 100% represent growth inhibition, and numbers from -100% - 0 represent cell death. […]
About 83,000 compounds went through this panel and 20% of them were active in at least one assay; those are over-represented in the sample as a whole.
Provide the reported growth of each item.
Answers are plain numbers, in %.

Solved entries (count: 4):
COc1cc(C2C3=C(COC3=O)N(CCO)c3cc4c(cc32)OCCO4)cc(OC)c1O (stereo unspecified); 51.6
CC(=Nc1ccccc1)C1=C(O)C(Cc2ccc(F)cc2)NC1=O (stereo unspecified); 37.5
O=C(CCc1nnc2sc(Cc3ccccc3Cl)nn12)c1nc2ncccc2[nH]1; 93.5
CN1CCN(Cc2ccc(NC(=O)c3cncc(C#Cc4nc(N)nc5[nH]ncc45)c3)cc2C(F)(F)F)CC1; 114

For the 6 molecules below, give their growth values.
1. CCN(CC)CCNC(=O)C(Cl)=C1C(Cl)=C(Cl)C(Cl)=C1Cl
2. NCCOc1ncccc1/C=C1\c2ccccc2-c2ccc([N+](=O)[O-])cc21
3. O=C1/C(=C/c2ccc(O)cc2)COc2ccc(O)c(O)c21
4. O=c1oc2ccc(I)cc2c(=O)n1-c1ccc(Br)cc1F
5. O=c1cc(-c2ccccc2)oc2cc(OCc3cn(Cc4ccc(F)cc4)nn3)cc(OCc3cn(Cc4ccc(F)cc4)nn3)c12
6. COc1cc(C(=O)Nc2ccc(-c3nc4ccccc4[nH]3)cc2)cc(OC)c1OC

(A)
1. 81.7
2. -23.4
3. 79
4. 5.24
5. 43.5
6. 94.5

Dear colleague, could you send me growth for each of the items below? Thanks.
1. C=C(C)CCC(C)N1CCC(N2CCC(C(=O)NCCc3ccccc3)CC2)CC1 (stereo unspecified)
2. CN1C(=O)N(C)C2C1NN=c1s/c(=C\c3ccc(Cl)cc3Cl)c(=O)n12 (stereo unspecified)
3. CCCCC(O)(c1ccc(Cl)cc1)C(CN1CCOCC1)c1ccc(Cl)cc1 (stereo unspecified)
4. CCOC(=O)c1c(Cl)c2c(n1Cc1ccccc1)-c1oncc1CCC2
5. O=C(/C=C/c1ccccn1)c1ccc(OCc2nnc(-c3ccc(Cl)cc3)o2)cc1

(A)
81
38.3
70.8
94
52.7

// batch mode: one growth value per listed entry
1. O=C(NC1CCN(Cc2ccccc2)CC1)c1cc(C(=O)NC2CCN(Cc3ccccc3)CC2)cc(C(=O)NC2CCN(Cc3ccccc3)CC2)c1
2. COc1ccc(-c2cn[nH]c2-c2ccc(OC)c(O)c2)cc1

(A)
90.3
98.6

====

test system: TK-10 renal; experiment: NCI-60 one-dose screen, 48 h (100 = growth as untreated, 0 = no growth, -100 = all killed); conditions: 10 µM unless noted
About 83,000 compounds went through this panel and 20% of them were active in at least one assay; those are over-represented in the sample as a whole.
Give growth for every item shown.
Numbers only, in %.

Your task in this section: give growth for each listed record.
1. O=S(=O)(c1ccccc1)n1cc2c(c1-c1ccccc1)CCc1sc(Nc3ccccc3)nc1-2
2. CC(C)(C)c1ccc(C2CC(=O)C3=C(C2)Nc2ccccc2N(C(=O)c2ccccc2Cl)C3c2ccc(F)cc2)cc1 (stereo not given)
3. Cc1c(-c2noc(-c3ccc([N+](=O)[O-])cc3)n2)no[n+]1[O-]
4. Clc1ccc(-c2nnc(COc3ccc(C4=NNC(c5ccco5)C4)cc3)o2)cc1 (stereo not given)
5. O=S1(=O)N(Cc2ccccc2)[C@@H](Cc2ccccc2)C2O[C@H]2[C@H](Cc2ccccc2)N1Cc1ccccc1 (stereo not given in full)

(A)
1: 100; 2: 58.9; 3: 153; 4: 83.4; 5: 71

====

tested on: MDA-MB-435 melanoma; assay: NCI-60 one-dose screen, 48 h (100 = growth as untreated, 0 = no growth, -100 = all killed); settings: 10 µM unless noted
About 83,000 compounds went through this panel and 20% of them were active in at least one assay; those are over-represented in the sample as a whole.
PROPERTY: growth (%)
Numbers only, in %.

For every listed record, write down its growth.
1. Cc1c(-c2noc(-c3ccc([N+](=O)[O-])cc3)n2)no[n+]1[O-]
2. N#C/C(=C1\SC(=O)CN1c1ccccc1)c1nc2ccccc2s1
3. COC(=O)c1c2c(c(C)[n+]([O-])c1C)C(=O)C(NCc1ccc(F)c(F)c1)=CC2=O
4. O=c1oc2ccc(Cl)cc2c(=O)n1-c1ccc(Cl)cc1F
5. CN1CCN(Cc2ccc(NC(=O)c3[nH]ncc3Nc3cc(OC4CCCC4)ncn3)cc2)CC1
6. O=C(Nc1ccc(F)c(Cl)c1)Nc1ccc(Cl)c(Cl)c1

(A)
1: 106; 2: 102; 3: -88.4; 4: -5.48; 5: 41.5; 6: -7.47

Below are some molecules; for each one, tell me its growth.
1. NS(=O)(=O)c1ccc(CCN=C=S)cc1
2. O=C1/C(=C/c2ccc(O)cc2)COc2ccc(O)c(O)c21
3. N#C/C(=C\c1c(-c2ccccc2)[nH]c2ccccc12)C(=O)c1ccccc1

(A)
27.9
19.5
10.8
